system: rodent lifetime carcinogenesis bioassay, tumor incidence TD50; assay: carcinogenic potency in animals, long-term in vivo studies, CPDB compilation (AID 1745844); conditions: hamster; strain Syrian Golden; males; inhaled; site: forestomach; lesion: epithelioma; dosed 30 weeks; study length 101 weeks
READOUT_NAME: TD50

Request: Quick one: give measured TD50 for C=CCl
Result: 55 mg/kg/day

* * *

test system: rodent lifetime carcinogenesis bioassay, tumor incidence TD50; test: carcinogenic potency in animals, long-term in vivo studies, CPDB compilation (AID 1745844); settings: mouse; strain B6C3F1; males; in drinking water; site: lung; lesion: papillary tumor; dosed 104 weeks; study length 104 weeks
READOUT_NAME: TD50
Include the unit right after the number.

| COMPOUND | READOUT_NAME | RECORDED_VALUE |
| --- | --- | --- |
| O=C(O)C1C2C=CC(C2)C1(C(=O)O)[N+](=O)[O-] (configuration not stated) | TD50 | 348 mg/kg/day |

Request: Tell me its TD50 given [Na+] as the entry.
Result: 3740 mg/kg/day

* * *

test system: rodent lifetime carcinogenesis bioassay, tumor incidence TD50; experiment: carcinogenic potency in animals, long-term in vivo studies, CPDB compilation (AID 1745844); conditions: mouse; strain B6C3F1; males; by gavage; site: liver; lesion: hepatocellular adenoma + hepatocellular carcinoma + neoplastic nodule; dosed 78 weeks; study length 91 weeks
READOUT_NAME: TD50 (mg/kg/day)
Give bare numbers, in mg/kg/day.

Request: Provide one value: measured TD50 of C=Cc1ccccc1
Result: 895

* * *

tested on: rodent lifetime carcinogenesis bioassay, tumor incidence TD50; experiment: carcinogenic potency in animals, long-term in vivo studies, CPDB compilation (AID 1745844); settings: rat; strain Fischer 344; females; in drinking water; site: thyroid gland; lesion: c-cell adenoma + c-cell carcinoma; dosed 103 weeks; study length 105 weeks
READOUT_NAME: TD50

Request: Would you please give the reported TD50 of Nc1ccc(Cc2ccc(N)cc2)cc1 with rodent lifetime carcinogenesis bioassay, tumor incidence TD50?
Result: 70 mg/kg/day

* * *

tested on: rodent lifetime carcinogenesis bioassay, tumor incidence TD50; experiment: carcinogenic potency in animals, long-term in vivo studies, CPDB compilation (AID 1745844); conditions: rat; strain Fischer 344; females; by gavage; site: mammary gland; lesion: fibroadenoma; dosed 77 weeks; study length 109 weeks
READOUT_NAME: TD50 (mg/kg/day)
Numbers only, in mg/kg/day.

Request: Using known records, supply TD50 for COc1ccc(N)c(C)c1
Result: 52.7

* * *

system: rodent lifetime carcinogenesis bioassay, tumor incidence TD50; test: carcinogenic potency in animals, long-term in vivo studies, CPDB compilation (AID 1745844); conditions: hamster; strain Syrian Golden; females; by gavage; site: nasal mucosa; lesion: several types; types named in the paper; dosed 41 weeks; study length 81 weeks
READOUT_NAME: TD50

Request: Provide only the value of recorded TD50 for CN(CC(O)CO)N=O (stereo unspecified)
Result: 0.94 mg/kg/day

* * *

tested on: rodent lifetime carcinogenesis bioassay, tumor incidence TD50; assay: carcinogenic potency in animals, long-term in vivo studies, CPDB compilation (AID 1745844); conditions: rat; strain Wistar; males; in drinking water; site: all sites; lesion: myelocytic leukemia; dosed 90 weeks; study length 90 weeks
READOUT_NAME: TD50

Request: Retrieve TD50 measured for NC(=O)N(CCO)N=O and print it.
Result: 3.66 mg/kg/day

* * *

tested on: rodent lifetime carcinogenesis bioassay, tumor incidence TD50; assay: carcinogenic potency in animals, long-term in vivo studies, CPDB compilation (AID 1745844); settings: mouse; strain SENCAR; females; by gavage; site: esophagus; lesion: squamous-cell papilloma; dosed 30 weeks; study length 67 weeks
READOUT_NAME: TD50

Request: Enter recorded TD50 with rodent lifetime carcinogenesis bioassay, tumor incidence TD50 for O=NN1CCCCCC1 here.
Result: 6.47 mg/kg/day

* * *

test system: rodent lifetime carcinogenesis bioassay, tumor incidence TD50; experiment: carcinogenic potency in animals, long-term in vivo studies, CPDB compilation (AID 1745844); settings: rat; strain Wistar-random; females; inhaled; site: any site (literature study); lesion: one or several types; types not named; dosed 123 weeks; study length 123 weeks
READOUT_NAME: TD50 (mg/kg/day)
Answers are plain numbers, in mg/kg/day.

Request: For CC1CO1 (stereo unspecified) , write its TD50.
Result: 25.7

* * *

system: rodent lifetime carcinogenesis bioassay, tumor incidence TD50; assay: carcinogenic potency in animals, long-term in vivo studies, CPDB compilation (AID 1745844); conditions: rat; strain Fischer 344; females; in drinking water; site: mammary gland; lesion: benign tumor; dosed 104 weeks; study length 104 weeks
READOUT_NAME: TD50

Request: Determine its reported TD50: C=CC(N)=O
Result: 4.21 mg/kg/day

* * *

system: rodent lifetime carcinogenesis bioassay, tumor incidence TD50; assay: carcinogenic potency in animals, long-term in vivo studies, CPDB compilation (AID 1745844); details: mouse; strain Swiss albino; males; in drinking water; site: blood vessels; lesion: several types; types named in the paper; dosed 62 weeks; study length 62 weeks
READOUT_NAME: TD50

Request: Provide only the value of recorded TD50 for CN(C)N
Result: 2.11 mg/kg/day

* * *

test system: rodent lifetime carcinogenesis bioassay, tumor incidence TD50; test: carcinogenic potency in animals, long-term in vivo studies, CPDB compilation (AID 1745844); settings: mouse; strain Swiss; males; inhaled; site: any site (literature study); lesion: several types; types named in the paper; dosed 52 weeks; study length 126 weeks
READOUT_NAME: TD50 (mg/kg/day)
Answers are plain numbers, in mg/kg/day.

Request: Name the recorded TD50 of the item C=C(Cl)Cl in your answer.
Result: 17.9

* * *

system: rodent lifetime carcinogenesis bioassay, tumor incidence TD50; assay: carcinogenic potency in animals, long-term in vivo studies, CPDB compilation (AID 1745844); settings: mouse; strain B6C3F1; males; inhaled; site: forestomach; lesion: squamous-cell papilloma; dosed 13 weeks; study length 104 weeks
READOUT_NAME: TD50 (mg/kg/day)
Answers are plain numbers, in mg/kg/day.

Request: Check rodent lifetime carcinogenesis bioassay, tumor incidence TD50 data and give TD50 for C=CC=C .
Result: 117

* * *

test system: rodent lifetime carcinogenesis bioassay, tumor incidence TD50; assay: carcinogenic potency in animals, long-term in vivo studies, CPDB compilation (AID 1745844); conditions: mouse; strain Swiss albino; females; in drinking water; site: lung; lesion: several types; types named in the paper; dosed 119 weeks; study length 119 weeks
READOUT_NAME: TD50

Request: Determine from records and report TD50 for CCCCNN
Result: 18.4 mg/kg/day

* * *

tested on: rodent lifetime carcinogenesis bioassay, tumor incidence TD50; assay: carcinogenic potency in animals, long-term in vivo studies, CPDB compilation (AID 1745844); settings: mouse; strain B6C3F1; females; inhaled; site: all sites; lesion: malignant lymphoma, NOS; dosed 61 weeks; study length 61 weeks
READOUT_NAME: TD50

Request: Answer briefly: TD50 recorded on rodent lifetime carcinogenesis bioassay, tumor incidence TD50 for C=CC=C
Result: 270 mg/kg/day

* * *

test system: rodent lifetime carcinogenesis bioassay, tumor incidence TD50; test: carcinogenic potency in animals, long-term in vivo studies, CPDB compilation (AID 1745844); conditions: rat; strain Osborne-Mendel; males; by gavage; site: any site (literature study); lesion: several types; types named in the paper; dosed 78 weeks; study length 106 weeks
READOUT_NAME: TD50 (mg/kg/day)
Numbers only, in mg/kg/day.

Request: Report measured TD50; entry is CC(Cl)(Cl)Cl
Result: 950

* * *

system: rodent lifetime carcinogenesis bioassay, tumor incidence TD50; assay: carcinogenic potency in animals, long-term in vivo studies, CPDB compilation (AID 1745844); details: mouse; strain CD-1 HaM/ICR; males; in feed; site: all sites; lesion: all vascular tumors; dosed 77 weeks; study length 90 weeks
READOUT_NAME: TD50

Request: Supply reported TD50 belonging to this molecule: Cc1ccc(N)cc1N
Result: 317 mg/kg/day

* * *

system: rodent lifetime carcinogenesis bioassay, tumor incidence TD50; assay: carcinogenic potency in animals, long-term in vivo studies, CPDB compilation (AID 1745844); conditions: rat; strain Sprague-Dawley; males; by gavage; site: forestomach; lesion: squamous-cell carcinoma, invasive; dosed 52 weeks; study length 156 weeks
READOUT_NAME: TD50

Request: Give the value of TD50 reported for the following: c1ccc(C2CO2)cc1 (stereo unspecified)
Result: 267 mg/kg/day

* * *

test system: rodent lifetime carcinogenesis bioassay, tumor incidence TD50; test: carcinogenic potency in animals, long-term in vivo studies, CPDB compilation (AID 1745844); conditions: rat; strain Fischer 344; females; in feed; site: thyroid gland; lesion: follicular-cell adenoma + follicular-cell carcinoma; dosed 103 weeks; study length 104 weeks
READOUT_NAME: TD50

Request: Return TD50 (reported value) for this compound: N=C1C=CC(=C(c2ccc(N)cc2)c2ccc(N)cc2)C=C1
Result: 154 mg/kg/day
